- System: Velvetleaf
- experimentDescription: Weed and crop Petri dish bioassay, radicle length
- Format: in vivo, Abutilon theophrasti Medicus
- experimentalSetup: Abutilon theophrasti, read-out: I50

# compound, IC50 / µM
measured = [
    ("N[C@@H](Cc1cccc(O)c1)C(=O)O [m-tyrosine, 3-hydroxyphenylalanine]", 168),
]

###

- System: Barnyard grass
- experimentDescription: Weed and crop Petri dish bioassay, radicle length
- Type: in vivo, Echinochloa crus-galli (L.) Beauv.
- experimentalSetup: Echinochloa crus-galli, read-out: I50
pIC50: −log10 of the molar value.
measurementLabel: pIC50

# compound, measurementLabel, measuredResult
rows = [
    ("N[C@@H](Cc1cccc(O)c1)C(=O)O [m-tyrosine, 3-hydroxyphenylalanine]", "pIC50", 3.59),
]
